Test system: methicillin sensitive S. aureus MSSA01
Test Method Notes: Broth microdilution MIC/MMC
Stated Conditions: MSSA01
Test Readout: MMC/MIC

- Cc1cc(O)c2c(c1)C(=O)c1cc(O)cc(O)c1C2=O: 1
- Cc1cc(O)c2c(c1)C(=O)c1cccc(O)c1C2=O: 1
- O=C(O)c1cn(C2CC2)c2cc(N3CCNCC3)c(F)cc2c1=O [ciprofloxacin, Ciprofloxacin, reference compound]: 1
- COc1cc(O)c2c(c1)C(=O)c1cc(C)cc(O)c1C2=O: 2
- O=C1c2cc(O)cc(O)c2C(=O)c2c(O)cc(CO)cc21 [Compound 5, 6-hydroxyemodin (Citreorosein)]: 2

###

This document collects MIC values reported for Cryptococcus neoformans H99.
Test Readout: MIC (µg/mL)

• Cc1cc(O)c2c(c1)C(=O)c1cccc(O)c1C2=O = 32
• O=C1c2cc(O)cc(O)c2C(=O)c2c(O)cc(CO)cc21 [Compound 5, 6-hydroxyemodin (Citreorosein)] = 16
• OC(Cn1cncn1)(Cn1cncn1)c1ccc(F)cc1F [fluconazole, reference compound] = 2
• Cc1cc(O)c2c(c1)C(=O)c1cc(O)cc(O)c1C2=O = 8
• CC(C)[C@@H](C)C=C[C@@H](C)[C@H]1CC[C@H]2[C@]3(O)C=CC4(O)CC(O)CC[C@]4(C)[C@H]3CC[C@]12C (stereo partly drawn) = 64
• COc1cc(O)c2c(c1)C(=O)c1cc(C)cc(O)c1C2=O = 8

###

System: Pseudomonas aeruginosa ATCC27853
Test Method Notes: Broth microdilution MIC/MMC
Stated Conditions: P. aeruginosa
Listing of recorded MMC/MIC by entry.
Test Readout: MMC/MIC

* CC(C)[C@@H](C)C=C[C@@H](C)[C@H]1CC[C@H]2[C@]3(O)C=CC4(O)CC(O)CC[C@]4(C)[C@H]3CC[C@]12C (stereo partly drawn) | 2
* O=C1c2cc(O)cc(O)c2C(=O)c2c(O)cc(CO)cc21 [Compound 5, 6-hydroxyemodin (Citreorosein)] | 2
* Cc1cc(O)c2c(c1)C(=O)c1cccc(O)c1C2=O | 2

###

Quick note: these are MIC numbers for system: Candida albicans ATCC10231
Test Readout: MIC (µg/mL)

• O=C1c2cc(O)cc(O)c2C(=O)c2c(O)cc(CO)cc21 [Compound 5, 6-hydroxyemodin (Citreorosein)] = 16
• Cc1cc(O)c2c(c1)C(=O)c1cc(O)cc(O)c1C2=O = 8
• OC(Cn1cncn1)(Cn1cncn1)c1ccc(F)cc1F [fluconazole, reference compound] = 1
• COc1cc(O)c2c(c1)C(=O)c1cc(C)cc(O)c1C2=O = 8
• CC(C)[C@@H](C)C=C[C@@H](C)[C@H]1CC[C@H]2[C@]3(O)C=CC4(O)CC(O)CC[C@]4(C)[C@H]3CC[C@]12C (stereo partly drawn) = 128
• Cc1cc(O)c2c(c1)C(=O)c1cccc(O)c1C2=O = 64

###

Test system: Cryptococcus neoformans H99
Test Method Notes: Broth microdilution MIC/MMC
Stated Conditions: C. neoformans
Listed below: MMC/MIC values for each entry.
Test Readout: MMC/MIC

• CC(C)[C@@H](C)C=C[C@@H](C)[C@H]1CC[C@H]2[C@]3(O)C=CC4(O)CC(O)CC[C@]4(C)[C@H]3CC[C@]12C (stereo partly drawn) = 2
• Cc1cc(O)c2c(c1)C(=O)c1cccc(O)c1C2=O = 1
• Cc1cc(O)c2c(c1)C(=O)c1cc(O)cc(O)c1C2=O = 1
• O=C1c2cc(O)cc(O)c2C(=O)c2c(O)cc(CO)cc21 [Compound 5, 6-hydroxyemodin (Citreorosein)] = 2
• COc1cc(O)c2c(c1)C(=O)c1cc(C)cc(O)c1C2=O = 1
• OC(Cn1cncn1)(Cn1cncn1)c1ccc(F)cc1F [fluconazole, reference compound] = 1

Data provenance: paper PMC8180025
